Taken from PubChem BioAssay (NCI).

- System: HCT-116 colon
- procedure-details: NCI-60 one-dose screen, 48 h
- conditions: 10 µM unless noted
This is part of a sample that, as a whole, favours compounds with a hit. Of some 83,000 tested, about 20% had one in any assay. Active and inactive are the calls of the source. The calls were made as follows: active = growth percent below 10; inactive = the rest.
Outcomes: active, inactive

| compound | classification |
| --- | --- |
| CCOC(=O)c1c(-c2ccc(O)cc2)c(C#N)c2c(C#N)c(N)nn2c1N | inactive |
| CC(=O)OCC1OC(OC2C(COC(C)=O)OC(OCCC[S-])C(OC(C)=O)C2OC(C)=O)C(OC(C)=O)C(OC(C)=O)C1OC(C)=O.[Au+].c1ccc(CN2[CH-]N(Cc3ccccc3)C(c3ccccc3)=C2c2ccccc2)cc1 (stereo unspecified) | active |
| c1ccc2nc(N3CCOCC3)c(N3CCCCC3)nc2c1 | inactive |
| CCN(CC)CC#CCOC(=O)[C@]1(C)CCC[C@]2(C)[C@H]3C[C@H]4C(C(C)C)=C[C@]3(CC[C@H]21)[C@@H]1C(=O)CCC(=O)[C@@H]14 | inactive |
| CC(=O)Nc1ccc2c(c1)Cc1cc(F)ccc1-2 | inactive |
| O=C(Nc1cc(Br)ccn1)c1cc2cc(Nc3nc(-c4ccccc4)nc4ccccc34)ccc2oc1=O | inactive |
| Cc1cnc(SCc2ccc(Cl)cc2Cl)nc1Nc1ccc(Cl)c(Cl)c1 | inactive |
| C#Cc1ccccc1NC(=O)c1sc2nc3c(cc2c1N)CCCCCC3 | inactive |
| Cc1cc2ccccc2c[n+]1CC(=O)c1ccc(-c2ccccc2)cc1 | inactive |
| C=C1C(=O)O[C@H]2[C@H]1CC/C(C=Nc1c(N)cc(F)cc1Br)=C\CC[C@@]1(C)O[C@@H]21 | inactive |
| Cc1[nH]c(N=Nc2ccccc2)nc1N=Nc1ccccc1 | inactive |
| O=C1CCC23OC(C(O)c4ccccc4N12)C1C(Br)=NOC13 (stereo unspecified) | inactive |
| COC(=O)c1oc2c(C(=O)/C=C/c3ccc(OC)cc3)c(OCCCN3CCCCC3)ccc2c1C | active |
| Nc1c(C(=O)Nc2ccccc2Cl)sc2nc3c(cc12)CN(Cc1ccccc1)CC3 | inactive |
| CCOC(=O)c1sc(/N=C2\NC(=O)/C(=C/c3ccc(N4CCN(C)CC4)cc3)S2)nc1C | inactive |
| CC(=O)Oc1c2c(nc3c1c1ccccc1n3Cc1ccccc1)-c1ccccc1C2 | inactive |
| COc1ccc(/C=C(/C(=O)N2CCCC2)c2cc(OC)c(OC)c(OC)c2)cc1 | inactive |
| O=C(/C(=C/c1ccc([N+](=O)[O-])cc1)SCc1ccc(Cl)cc1)c1ccc(F)cc1 | active |
| CCOC(=O)C(=Cc1c(-c2ccccc2)[nH]c2ccccc12)C(=O)OCC | inactive |
| CCCCCCN1C(=O)CN=C1Nc1ccc2cc3ccc(NC4=NCC(=O)N4CCCCCC)cc3nc2c1 | inactive |
| COCCOCCOCc1n(Cc2ccc3ccccc3n2)c2ccccc2[n+]1Cc1ccc2ccccc2n1 | inactive |
| CC1(C)Cc2c(Br)c(Br)c(Br)c(OCC(O)CN3CCOCC3)c2O1 (stereo unspecified) | inactive |
| NC(=O)c1ccc(C2C3=C(CCCC3=O)OC3=C2C(=O)c2ccccc2C3=O)cc1 (stereo unspecified) | active |
| CN1C(=O)c2cc(Cl)nc3c(NC(=O)c4cccc(Cl)c4)c(Cl)c(NC(=O)c4cccc(Cl)c4)c1c23 | active |
| CC1(C)CC[C@]2(c3nnc(-c4ccncc4)o3)CC[C@]3(C)C(=CC[C@@H]4[C@@]5(C)CCC(=O)C(C)(C)[C@@H]5CC[C@]43C)[C@@H]2C1 | inactive |
| C#C[C@@]1(O)[C@@H](CO)O[C@@H](n2cc(Br)c3c(N)ncnc32)[C@@H]1O | active |
| COc1cc(C2=NN(c3ccccc3)C(c3cccc(Nc4ccnc5cc(C(F)(F)F)ccc45)c3)C2)cc(OC)c1OC (stereo unspecified) | inactive |
| COc1cc(C2CC(c3ccc(Nc4nc(NCCO)nc(NCCO)n4)cc3)=NN2c2cc(Cl)cc(Cl)c2)cc(OC)c1OC (stereo unspecified) | active |
| O=C(/C(=C/c1ccc([N+](=O)[O-])cc1)SCc1ccccc1)c1ccc(Cl)cc1 | inactive |
| CCOC(=O)NC(Cc1ccccc1)c1ccccc1 (stereo unspecified) | inactive |
| COc1ccc(Cl)c([N+](=O)[O-])c1 | inactive |
| C=C(C)[C@@H]1CC[C@]2(C(=O)NCCCO)CC[C@]3(C)[C@H](CC[C@@H]4[C@@]5(C)CCCNC(C)(C)[C@@H]5CC[C@]43C)[C@@H]12 | inactive |
| CCCn1cc(/C=N\N=C2\C(=O)Nc3ccc(C)cc32)c2ccccc21 | inactive |
| O=C(O)CCNC1CCCCC1 | inactive |
| COC(=O)c1nc(-c2ccccc2)oc1S(=O)(=O)n1nc(C)cc1N | inactive |
| C=C1C(=O)O[C@H]2[C@H]1CC/C(COC(=O)CCCCCCCCC(=O)OC/C1=C/CC[C@@]3(C)O[C@H]3[C@H]3OC(=O)C(=C)[C@@H]3CC1)=C\CC[C@@]1(C)O[C@@H]21 | active |

* * *

- System: RPMI-8226 leukemia
- procedure-details: NCI-60 one-dose screen, 48 h
- conditions: 10 µM unless noted
Compounds without any hit were thinned out: in the full panel of roughly 83,000, 20% have a hit. Active and inactive are the calls of the source. The calls were made as follows: active = growth percent below 10; inactive = the rest.
Outcomes: active, inactive

| compound | classification |
| --- | --- |
| CC(=O)OCC1SC(OC(C)=O)C(NC(=O)/C=C/CCl)C(OC(C)=O)C1OC(C)=O (stereo not drawn) | inactive |
| COC(=O)/C=C1\SC(=Nc2cccc(Cl)c2)N(CCc2c[nH]c3ccccc23)C1=O | active |
| C#Cc1ccccc1NC(=O)c1sc2nc3c(cc2c1N)CCCCC3 | inactive |
| N#Cc1c(NC(=O)c2cccs2)[n+]([O-])c2cc(C(F)(F)F)ccc2[n+]1[O-] | inactive |
| COc1ccc(Nc2nc(SCC(C)C)nc(-c3ccc(F)cc3)c2C#N)cc1 | inactive |
| Cc1cc(Cl)cc(CN(Cc2ccccc2)Cc2c(O)ccc3ccccc23)c1O | inactive |
| O=C(Nc1ccc(N=Cc2ccccc2O)cc1)NC1C=c2ccccc2=CC1 (stereo not drawn) | inactive |
| CCN(CC)CC#CCOC(=O)[C@]1(C)CCC[C@]2(C)[C@H]3C[C@H]4C(C(C)C)=C[C@]3(CC[C@H]21)[C@@H]1C(=O)CCC(=O)[C@@H]14 | inactive |
| O=C1NCc2ccc3c(-c4cccc(Cl)c4)c[nH]c3c21 | inactive |
| Nc1c(C(=O)Nc2ccccn2)sc2nc3c(cc12)CCCCCC3 | active |
| CCCCn1c(=O)c(/C=C/C(=O)/C=C/c2cc3ccccc3n(CCCC)c2=O)cc2ccccc21 | active |
| O=CN1N=C(c2ccc(F)cc2)CC1c1cccc(Nc2ccnc3cc(C(F)(F)F)ccc23)c1 (stereo not drawn) | inactive |
| CCCCC(=O)Nc1c(C(=O)Nc2ccccc2)sc2nc3c(cc12)C(OC(=O)CCCC)CCC3 (stereo not drawn) | inactive |

* * *

- Tested on: BT-549 breast
- procedure-details: NCI-60 one-dose screen, 48 h (100 = growth as untreated, 0 = no growth, -100 = all killed)
- conditions: 10 µM unless noted
About 83,000 compounds went through this panel and 20% of them were active in at least one assay; those are over-represented in the sample as a whole.

| molecule | growth (%) |
| --- | --- |
| O=c1cc(/C=N\Nc2nc(-c3ccc(Cl)cc3Cl)cs2)c2cc(Cl)ccc2o1 | 96.7 |
| CC(=O)OCC1SC(OC(C)=O)C(NC(=O)/C=C/CCl)C(OC(C)=O)C1OC(C)=O (stereo not drawn) | 105 |
| COc1cc(C2=NN(C=O)C(c3cccc(Nc4ccnc5cc(C(F)(F)F)ccc45)c3)C2)cc(OC)c1OC (stereo not drawn) | 56.1 |
| O=C(O)c1ccc(-n2cc(/C=N/Nc3ccc(Cl)cc3Cl)c(-c3ccccc3)n2)cc1 | 79.3 |
| CC(=O)O[C@@H]1C[C@]2(C)[C@H]3[C@H](O)C[C@@H]4C5=CC(C)(C)CC[C@]5(C)CC[C@@]4(C)[C@]3(C)CC[C@H]2C(C)(C)[C@H]1O | 102 |
| C=CCn1c(CN2CCN(c3cc4c(cc3F)c(=O)c(C(=O)O)cn4C3CC3)CC2)n[nH]c1=S | 105 |
| O=CN1N=C(c2ccc(Cl)cc2)CC1c1cccc(Nc2ccnc3cc(C(F)(F)F)ccc23)c1 (stereo not drawn) | 53.9 |
| COc1ccc(C(=O)c2cc(OC)c(OC)c(OC)c2)cc1OC(=O)C(Cl)(Cl)Cl | -0.136 |

* * *

- Tested on: SF-268 CNS
- procedure-details: NCI-60 one-dose screen, 48 h (100 = growth as untreated, 0 = no growth, -100 = all killed)
- conditions: 10 µM unless noted
This is part of a sample that, as a whole, favours compounds with a hit. Of some 83,000 tested, about 20% had one in any assay.
Measured growth accompanies every entry in the list below.

| compound | growth, % |
| --- | --- |
| COc1ccc(Nc2cc(NC(=O)CNc3cc(OC)c(Cl)c(OC)c3Cl)ncn2)cc1 | 78.3 |
| Cc1ccc(C(=O)O)o1 | 98.1 |
| O=C1NN(c2ccccc2)C(c2ccc(Cl)cc2)N2CCC[C@H]12 (stereo partly drawn) | 97.4 |
| NS(=O)(=O)c1ccc(C2C3=C(CCCC3=O)OC3=C2C(=O)c2ccccc2C3=O)cc1 (stereo not drawn) | -42.6 |
| Cc1ccccc1NC(=O)c1sc2nc(C)c(C(C)O)cc2c1N (stereo not drawn) | 67.5 |
| CCCCCCC/C=C/[C@H]1O[C@]23C(=O)C[C@@]4(C[C@@H](OC5OC(CO)C(O)C(O)C5O)C[C@@H]4[C@H]2C=C1C)OC3=O (stereo partly drawn) | 48.3 |
| C#CCN1C(=O)c2ccccc2N(CC#C)C12CCN(Cc1cn(CC(=O)Nc3ccccc3C(N)=O)nn1)CC2 | 91.7 |
| COc1cc(NC(=O)c2cc(O)c(C/C=C(\C)CCC=C(C)C)c(O)c2)cc2c1O[C@]1(C)CC[C@@H](O)C(C)(C)[C@H]1C2 | 15.7 |
| CCc1c(C(=O)N[C@@H](C(=O)OCc2ccccc2)C(C)O)[nH]c2ccc(Cl)cc12 (stereo partly drawn) | 84.3 |
| CCCCn1c(=O)c(/C=C/C(=O)/C=C/c2ccc(OC)cc2)cc2cc(Cl)ccc21 | 42.6 |
| CCOC(=O)c1sc(/N=C2\NC(=O)/C(=C/c3ccc(N4CCN(C)CC4)cc3)S2)nc1C | 97.3 |
| O=C1Nc2ccc(Br)cc2/C1=N\N=C/c1cn(Cc2ccccc2)c2ccccc12 | 95 |
| COC(=O)[C@]1(C)CCC[C@]2(C)[C@H]3C[C@H]4C(C(C)C)=C[C@]3(CC[C@H]21)[C@@H]1C(=O)N(CCC#N)C(=O)[C@@H]14 | 89.4 |
| Nc1ccc(C2=NN(C(=O)c3cc(-c4ccc(Cl)cc4)nc4ccccc34)C(c3ccc(Cl)cc3)C2)cc1 (stereo not drawn) | 55 |
| C=C1C(=O)O[C@H]2[C@H]1CC/C(COC(=O)c1cn(C)c3ccccc13)=C\CC[C@@]1(C)O[C@@H]21 | -8.89 |
| C=C1C(=O)O[C@H]2[C@H]1CC/C(COC(=O)c1c[nH]c3ccccc13)=C\CC[C@@]1(C)O[C@@H]21 | -40.8 |
| COc1cc(/C=C/CO)cc(OC)c1O[C@@H]1O[C@H](CO)[C@@H](O)[C@H](O)[C@H]1O | 102 |
| CCOC(=O)c1ccc(Nc2ncnc3ccc(NC(=O)c4ccccc4)cc23)cc1 | 91.3 |
